Sequence of the target: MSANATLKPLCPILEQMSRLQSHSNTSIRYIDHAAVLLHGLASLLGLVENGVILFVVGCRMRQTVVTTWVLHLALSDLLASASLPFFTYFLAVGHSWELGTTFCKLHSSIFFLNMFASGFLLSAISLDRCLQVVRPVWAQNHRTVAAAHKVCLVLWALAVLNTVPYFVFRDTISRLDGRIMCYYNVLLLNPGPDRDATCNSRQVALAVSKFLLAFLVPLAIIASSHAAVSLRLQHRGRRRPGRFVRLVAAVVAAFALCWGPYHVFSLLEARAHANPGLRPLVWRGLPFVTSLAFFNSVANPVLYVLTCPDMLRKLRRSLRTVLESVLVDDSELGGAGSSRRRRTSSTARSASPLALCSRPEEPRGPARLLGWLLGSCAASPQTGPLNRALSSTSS
I'd be grateful if you could share measured Ki for these entries.

Would you please look over these solved cases?
O=C(O)Cc1c2n(c3ccccc13)CC(n1cc(Cc3ccccc3)nn1)CC2 (stereo not drawn) :: 10 to 50 nM
O=C(O)Cc1c2n(c3ccccc13)CC(n1nncc1-c1ccc(F)cc1)CC2 (stereo not drawn) :: > 100 nM
CC(C)(c1ccc(F)cc1)c1cnnn1C1CCc2c(CC(=O)O)c3cccc(F)c3n2C1 (single isomer, unassigned) :: ≤ 5 nM
O=C(O)Cc1c2n(c3ccccc13)CC(n1nncc1COc1ccccc1)CC2 (stereo not drawn) :: 10 to 50 nM
CC1C(n2nncc2Cc2ccc(F)cc2)CCc2c(CC(=O)O)c3cccc(F)c3n21 (single isomer, unassigned) :: ≤ 5 nM
O=C(O)Cn1c2c(c3ccccc31)CC(n1nncc1Cc1ccccc1)CC2 (single isomer, unassigned) [Example 9.2] :: > 100 nM
O=C(O)Cc1c2n(c3ccccc13)CC(n1nncc1Cc1ccc(F)cc1)CC2 (single isomer, unassigned) :: ≤ 5 nM
CC(c1ccccc1)c1cnnn1C1CCc2c(CC(=O)O)c3cccc(F)c3n2C1 (single isomer, unassigned) :: 10 to 50 nM

Consider the additional compound presented here.
Req: Query: Ki; subject: O=C(O)Cc1c2n(c3ccccc13)CC(n1nncc1C1(c3ccccc3)CCCC1)CC2 (single isomer, unassigned) [Example 6.2]
Resp: 50 to 100 nM

Hey, just so you know, these numbers are from patent US9023864B2.
